Tested on: LOX IMVI melanoma
assay.details: NCI-60 one-dose screen, 48 h
reported.conditions: 10 µM unless noted
The panel holds about 83,000 compounds, 20% with a hit somewhere; the sample as a whole holds those more often. Active and inactive are the calls of the source. Rule for the calls: active = growth percent below 10; inactive = the rest.
I would appreciate it if you answered using one of these outcomes: active, inactive

Record request — test call for `CCc1c2c(nc3ccc(OC(=O)OCc4ccc(B5OC(C)(C)C(C)(C)O5)cc4)cc13)-c1cc3c(c(=O)n1C2)COC(=O)[C@]3(O)CC`
active

Assay outcome for `N#C/C(=C\c1ccc2c(c1)OCO2)n1nnc2cc(F)c(F)cc21` : what was it?
inactive

What did the test return for `COc1ccc2c(c1)O/C(=C\c1cccc(OCC(=O)Nc3nc4ccccc4s3)c1)C2=O` ?
active

# outcome recorded in this test, key = `CN(C)CCNc1nc2ccccc2c2c1c1c(n2Cc2ccccc2)-c2ccccc2C1=O`
active

Answer briefly: the call reported for `COc1ccccc1N1C(=O)/C(=C/C2=Cc3ccccc3OC2)SC1=S` in this assay.
inactive

Entry `CNC(=O)c1cc(Oc2ccc3nc(Nc4ccc(Cl)c(C(F)(F)F)c4)ccc3c2)ccn1` : call = ?
inactive

Which outcome was entered for the compound `c1ccc(-c2nc([P+](c3ccccc3)(c3ccccc3)c3ccccc3)c(N3CCOCC3)o2)cc1` in this test?
active

# fetch the recorded call for `Cc1cc(Cl)nc(NCc2cc(Nc3ccnc4cc(Cl)ccc34)ccc2F)n1` here
inactive

Which result was noted for this compound in the test: `O=C(Nc1cccc(Oc2nnc(Cl)c3ccccc23)c1)Nc1ccc(Cl)c(C(F)(F)F)c1`
active

###

Provide the reported growth of each item.
System: DU-145 prostate
assay.details: NCI-60 one-dose screen, 48 h (100 = growth as untreated, 0 = no growth, -100 = all killed)
reported.conditions: 10 µM unless noted
Compounds without any hit were thinned out: in the full panel of roughly 83,000, 20% have a hit.
Report the figure in % without appending any unit label.

Please give the measured growth for this compound: Cc1ccc(NS(=O)(=O)c2ccc3c(c2)C2OCCC2C(c2ccc(C(=O)C(C)C)cc2)N3)cc1C (centres undefined)
60.9

Reported growth for `O=C1C=C[C@]2(C[C@@H](c3cccc(C(F)(F)F)c3)O[C@@H](c3cccc(C(F)(F)F)c3)O2)O1` : what is it?
28.7

Form field: reported growth of `Cn1ccc2c(c1=O)C(=O)c1nccc3c1c-2nc1ccccc13`
-88.3

Fill in: growth of `Cc1cccc(-c2nc(N(C)c3ccc4ncsc4c3)c3ccccc3n2)n1` is ___
94.1

Need growth, item `C=CCOC1=CC(=O)c2ccccc2C1=O`
59.9

Quick check: growth of `C=C1C(=O)O[C@H]2[C@H]1CC/C(COC(=O)C(=O)c1c[nH]c3ccc(OC)cc13)=C\CC[C@@]1(C)O[C@@H]21` ?
-89.8

Can you look up the measured growth of `COc1cc(/C=C/C(=O)c2c(C)nc3ccccc3c2C)ccc1OCCCN1CCN(C(=O)c2ccco2)CC1` for me?
91.4

Name the reported growth value associated with the compound N#CCN1C(=O)C2C3=C(CCCC3)SC2N=C1CN1CCCC1 (centres undefined)
99.7

Suppose we examine the compound `COc1ccccc1NC(=O)N/C(N)=N/c1nc2ccccc2s1` ; what growth value has been reported?
19.3

###

Test system: COLO 205 colon
assay.details: NCI-60 one-dose screen, 48 h
reported.conditions: 10 µM unless noted
This is part of a sample that, as a whole, favours compounds with a hit. Of some 83,000 tested, about 20% had one in any assay. Activity calls are given as the source filed them. Rule for the calls: active = growth percent below 10; inactive = the rest.
Choose the fitting class; nothing outside yes (1) = active, no (0) = inactive is accepted.

Please let me know the test result on file for CC1(C)CC(=O)CC2(C1)N=C(N)Nc1nc3ccccc3n12 (stereo not given) .
no (0)

For Cc1ccc(NS(=O)(=O)c2ccc3c(c2)C(=O)CC(c2ccc(C(=O)C(C)C)cc2)N3)cc1C (stereo not given) , which call appears in the assay record?
no (0)

Answer briefly: the call reported for `Cc1ccc(CCC(=O)Nc2ncc(Cc3cc(Cl)ccc3Cl)s2)o1` in this assay.
yes (1)

Any idea what this test logged for `O=C(Nc1cccc(C(F)(F)F)c1)Nc1cccc(C(F)(F)F)c1` ?
yes (1)

Short answer needed: outcome of this test for CN(C)CC1C(=O)O[C@H]2[C@H]1CC/C(COC(=O)c1cc3ccccc3[nH]1)=C\CC[C@@]1(C)O[C@@H]21 (stereo not given in full) ?
yes (1)

Given CC1CC(C(C)(C)C)C(=O)C(C(C)(C)C)C1 (stereo not given) , state the outcome it received in this test.
no (0)

Name the outcome recorded for CCN1C(=O)N(CC)C2Nn3c(s/c(=C\c4ccc(Cl)cc4Cl)c3=O)=NC21 (stereo not given) in the assay.
yes (1)

State the result this test recorded for `COc1ccc2c(c1)C(=O)/C(=C/c1ccc(OCC(=O)Nc3nccs3)cc1)O2` .
no (0)

Identify the outcome logged in this assay for the compound shown: `O=C(c1ccccc1)c1c(/C=C/c2ccccc2)nc2ccccc2c1/C=C/c1ccc(Br)cc1`
no (0)

GET /call?item= `COc1cc(/C=N/Nc2ncc(-c3cc4cc5c(cc4o3)OCO5)s2)cc(OC)c1OC` returns the recorded outcome of this test.
no (0)
